- target: human glucagon receptor (human) (UniProt P47871)
- Sequence (P47871 26-477): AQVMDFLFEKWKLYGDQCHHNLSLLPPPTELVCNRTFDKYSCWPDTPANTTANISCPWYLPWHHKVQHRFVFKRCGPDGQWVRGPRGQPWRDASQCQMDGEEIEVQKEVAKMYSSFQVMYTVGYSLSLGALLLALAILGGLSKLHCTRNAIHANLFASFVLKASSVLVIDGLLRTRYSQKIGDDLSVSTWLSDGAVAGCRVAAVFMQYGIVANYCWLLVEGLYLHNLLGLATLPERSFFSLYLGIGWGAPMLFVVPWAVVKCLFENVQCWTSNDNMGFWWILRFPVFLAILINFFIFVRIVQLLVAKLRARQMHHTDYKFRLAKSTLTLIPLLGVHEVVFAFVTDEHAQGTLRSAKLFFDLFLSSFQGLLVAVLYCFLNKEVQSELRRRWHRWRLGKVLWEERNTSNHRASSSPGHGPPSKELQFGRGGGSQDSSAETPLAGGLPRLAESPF
- experimental-details: cell-based or functional assay
Listed here are binders together with their documented Relative cAMP EC50.
Numbers only here, please. The scale is nM.

Consider the worked cases shown below.
binder	unit-of-measure	Relative cAMP EC50
YXQGTFTSDXSRXLDKKAQXAFIEXLLEGGPSSGAPPPSGS (synthetic construct; SITE 2: note = 2-Aminoisobutyric Acid; SITE 10: note = 3-(4-Pyridyl)-L-alanine; SITE 13: note = alpha-methyl-leucine; SITE 17: note = Lysine is chemically modified through conjugation of the epsilon-amino group of the Lysine side chain with (2-[2-(2-Amino-ethoxy)-ethoxy]-acetyl)) [Example 909]	nM	6.82
YXQGTXTSDXXIXLDXKAQXEFIEXLIEGGPSSXAPPPEGE (non-natural residues; AEEA-γGlu-C18 diacid on Lys; C-terminal amide; synthetic construct; SITE 2: note = 2-Aminoisobutyric Acid; SITE 6: note = alpha-methyl-2-fluoro-L-phenylalanine; SITE 10: note = 3-(4-Pyridyl)-L-alanine; SITE 11: note = alpha-methyl-L-serine; SITE 13: note = alpha-methyl-leucine; SITE 16: note = L-ornithine; SITE 17: note = Lysine is chemically mo) [Example 1192]	nM	1.54
YXQGTXTSDXXIXLDXKAQXEFIEXLIEGGPPSXXPPPXGGGE (Lys acylated AEEA-γGlu-C18 diacid; non-natural residues; C-amide; synthetic construct; SITE 2: note = 2-Aminoisobutyric Acid; SITE 6: note = alpha-methyl-2-fluoro-L-phenylalanine; SITE 10: note = 3-(4-Pyridyl)-L-alanine; SITE 11: note = alpha-methyl-L-serine; SITE 13: note = alpha-methyl-leucine; SITE 16: note = L-ornithine; SITE 17: note = Lysine is chemically mo) [Example 1197]	nM	1.88
YXQGTXTSDYSILLDKIAQXAFIKYLEEGGPSSGAPPPS (not fully specified; synthetic construct; SITE 2: note = 2-Aminoisobutyric Acid; SITE 6: note = alpha-methyl-2-fluoro-L-phenylalanine; SITE 20: note = 2-Aminoisobutyric Acid; SITE 24: note = Lysine is chemically modified through conjugation of the epsilon-amino group of the Lysine side chain with (2-[2-(2-Amino-ethoxy)-) [Example 430]	nM	2.11

In: Relative cAMP EC50 lookup needed for YXQGTXTSDXSIXLDKKAQXXFIEYLAEGGPSSGEPPPSGSEE (non-natural residues; C18 diacid-(γ-Glu)2 acyl on Lys; C-terminal amide; synthetic construct; SITE 2: note = 2-Aminoisobutyric Acid; SITE 6: note = alpha-methyl-2-fluoro-L-phenylalanine; SITE 10: note = 3-(4-Pyridyl)-L-alanine; SITE 13: note = alpha-methyl-leucine; SITE 17: note = Lysine is chemically modified through conjugation of the epsilon-amino group of the Lysine) [Example 636] , thanks.
Out: 9.28

In: Relative cAMP EC50 lookup needed for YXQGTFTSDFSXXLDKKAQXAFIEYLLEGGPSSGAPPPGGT (non-natural residues; lipidated Lys; synthetic construct; SITE 2: note = 2-Aminoisobutyric Acid; SITE 12: note = L-ornithine; SITE 13: note = alpha-methyl-leucine; SITE 17: note = Lysine is chemically modified through conjugation of the epsilon-amino group of the Lysine side chain with (2-[2-(2-Amino-ethoxy)-ethoxy]-acetyl)-(gamma-Glu)) [Example 197] , thanks.
Out: 3.23
